test system: Normal Human Dermal Fibroblast (NHDF); test: Sulforhodamine B cytotoxicity assay, NHDF; assay type: cell-based; conditions: Homo sapiens, normal, 72 hours, read-out: IC50 Values
In this section, each of the compounds is paired with its reported IC50.
Lab book: enter the figure in µM, no units written.

A selection of reference data follows.
compound="CC1=C(C)C(=O)C2=C(C#CCCCC(O)C#C2)C1=O (stereo not shown)" reported_metric=IC50 test_value=3.1
compound="Cc1c(C)c(OC(=O)C(C)(C)C)c2c(c1OC(=O)C(C)(C)C)C#CCCCC(O)C#C2 (stereo not shown)" reported_metric=IC50 test_value=100
compound="Cc1c(C)c(O)c2c(c1O)C#CCCCC(O)C#C2 (stereo not shown)" reported_metric=IC50 test_value=25

Please find the next compound below.
input: Request the reported IC50 associated with CC1=C(C)C(=O)C2=C(C#CCCCC(=O)C#C2)C1=O
output: 100

* * *

test system: Human Mammary Epithelial Cells (HMEC); test: Sulforhodamine B cytotoxicity assay, HMEC; assay type: cell-based; conditions: normal, 72 hours
In this section, each of the molecules is paired with its reported IC50.
Please format your answer as a value with the unit trailing.

A selection of reference data follows.
molecule=CC1=C(C)C(=O)C2=C(C#CCCCC(=O)C#C2)C1=O test_value="100 µM"
molecule="Cc1c(C)c(O)c2c(c1O)C#CCCCC(O)C#C2 (stereo not shown)" test_value="25 µM"
molecule="CC1=C(C)C(=O)C2=C(C#CCCCC(O)C#C2)C1=O (stereo not shown)" test_value="3.1 µM"

Please find the next molecule below.
input: Request the reported IC50 associated with Cc1c(C)c(OC(=O)C(C)(C)C)c2c(c1OC(=O)C(C)(C)C)C#CCCCC(O)C#C2 (stereo not shown)
output: 100 µM
